// provenance: ChEMBL document CHEMBL1201862

Tested on: IGROV-1
Measurement Protocol: NCI tumour cell line growth inhibition, 48 h
Calls of active or inactive are those of the source. Rule as the data show it: active = GI50 up to about 1.1 µM and inactive = higher.
Outcome field: choose from 1 = active, 0 = inactive

Hi, do you know how `O=C1c2cc([N+](=O)[O-])ccc2-c2ccc3c4ccc5c6c(ccc(c7ccc1c2c73)c64)C(=O)c1cc([N+](=O)[O-])ccc1-5` came out in this test?
0

Hi, do you know how N#CC1=C(S)N(C2OC(CO)C(O)C(O)C2O)C(c2ccccc2)=CC1c1ccco1 (stereo not given) came out in this test?
0

Hi, do you know how CCC(C)OC(=O)C1C2CCC(O2)C1C(=O)O (stereo not given) came out in this test?
0

Hi, do you know how `O=C(/C=C/c1ccc(O)c(O)c1)Oc1ccccc1` came out in this test?
0

Hi, do you know how `CCOP(=O)(OCC)/C(=C\n1c(=S)[nH]c2cc(C)ccc21)C(=O)OC` came out in this test?
0

Hi, do you know how `C/C(=N\NC(=S)N(C)C)c1ccccn1` came out in this test?
1

Hi, do you know how `CN(C)c1ccc(/C=N/c2ccc(-c3nc4ccccc4[nH]3)cc2)cc1` came out in this test?
0

Hi, do you know how `CN(C)C(=S)/N=c1\ss/c(=N\C(=S)N(C)C)n1Cc1ccco1` came out in this test?
0

Hi, do you know how `Cc1cc(OCC(=O)O)c(Cl)cc1Cl` came out in this test?
0

Hi, do you know how `CSc1ccccc1P(CCP(c1ccccc1SC)c1ccccc1SC)c1ccccc1SC` came out in this test?
1

Hi, do you know how CCOC(=O)C12CN(C34CC5CC(CC(C5)C3)C4)CC(C(=O)OCC)(C1=O)C(c1ccccc1)OC2c1ccccc1 (stereo not given) came out in this test?
0
